- System: HOP-92 NSCLC
- ASSAY_PROTOCOL: NCI-60 one-dose screen, 48 h (100 = growth as untreated, 0 = no growth, -100 = all killed)
- CONDITION_INFO: 10 µM unless noted
About 83,000 compounds went through this panel and 20% of them were active in at least one assay; those are over-represented in the sample as a whole.
VALUE_TYPE: growth (%)

# RECORD_SMILES, VALUE_UNIT, VAL
rows = [
    ("COc1ccc(/C=C/c2nc(Nc3ccc(S(=O)(=O)NC(C)=O)cc3)c3ccccc3n2)cc1", "%", 67.8),
    ("COc1cc(NC(=O)CSc2nc3ccc(C)cc3c(=O)n2Cc2ccccc2)cc(OC)c1OC", "%", 0.585),
    ("c1ccc2cc(Cn3c(-c4cccc5ccccc45)[n+](Cc4ccc5ccccc5c4)c4c5ccccc5c5ccccc5c43)ccc2c1", "%", -52.3),
    ("CCCCN1C=CCN(CCCC)C1", "%", 50.2),
    ("Cc1cccc(NC(=O)Nc2ccc(-c3ccc4c(c3)NC(=O)/C4=C\\c3ccc[nH]3)cc2)c1", "%", 127),
]

====

Collected growth values appear next to each entry.
- System: SR leukemia
- ASSAY_PROTOCOL: NCI-60 one-dose screen, 48 h (100 = growth as untreated, 0 = no growth, -100 = all killed)
- CONDITION_INFO: 10 µM unless noted
Compounds without any hit were thinned out: in the full panel of roughly 83,000, 20% have a hit.
VALUE_TYPE: growth (%)

# MOLECULE, VALUE_TYPE, VAL
rows = [
    ("COc1cc2c(=O)n(CCN)c3c4cc5c(cc4ccc3c2cc1OC)OCO5", "growth", -26),
    ("O=C1c2ccccc2C(=O)c2c([N+](=O)[O-])ccc(Cl)c21", "growth", 54),
    ("O=c1[nH]nc(-c2ccccc2)c2sc3ncc(-c4ccc(Br)cc4)n3c12", "growth", 26.1),
    ("O=C1Nc2cc(-c3ccc(NS(=O)(=O)c4ccccc4)cc3)ccc2/C1=C/c1ccc[nH]1", "growth", 6.67),
    ("CC(Sc1nc2sc3c(c2c(=O)n1-c1ccc(Cl)cc1)CCCC3)C(=O)Nc1nc(-c2ccc(Br)cc2)cs1 (stereo not given)", "growth", 97.6),
    ("CCCCCCCCOc1ccc(/C=N/Nc2cc(C)nc3ccc(Br)cc23)cc1", "growth", -14.3),
    ("COc1ccc(/C=C(\\C#N)n2nc3cccc(F)c3n2)cc1", "growth", 82.4),
    ("CC(=O)Nc1ccc(-n2cnc3cc(-c4ccc(OCCN5CCCCC5)cc4)ccc32)cc1", "growth", -9.89),
    ("CCN1CCN(CCNc2nccc(-c3c(-c4cccc(OC)c4)nc4occn34)n2)S1(=O)=O", "growth", 96.3),
    ("COc1cc2nc(-c3ccc(C(F)(F)F)cc3)cc(OCCCN3CCOCC3)c2cc1OC", "growth", 16.5),
    ("Cn1c(N2NC(=O)C(N=Nc3ccc(S(N)(=O)=O)cc3)C2=O)nc(-c2ccco2)c(C#N)c1=O (stereo not given)", "growth", 1.63),
    ("CCCCCC(=O)Oc1ccc(/C(=C(\\C)c2ccccc2)c2ccc(OCCN3CCCCC3)cc2)cc1", "growth", 30.5),
    ("CCCCCCNC(=O)Nc1ccc2cc3ccc(NC(=O)NCCCCCC)cc3nc2c1", "growth", -33),
    ("CCOC(=O)[C@@H]1CCCN(S(=O)(=O)c2ccc(S(=O)(=O)N(CC)CC)c(F)c2)C1", "growth", 60.1),
    ("CCNC(=O)Oc1ccc(/C(=C(\\C)c2ccccc2)c2ccc(OCCCN(C)C)cc2)cc1", "growth", 10.2),
    ("CCOC(=O)CCN(CC(C)C)C(=S)Nc1ccccc1", "growth", 97.1),
    ("O=C1Nc2cc(-c3cccc(O)c3)ccc2/C1=C/c1ccc[nH]1", "growth", 4.14),
    ("Nc1c(C(=O)Nc2cccc3cnccc23)sc2nc3c(cc12)CN(Cc1ccccc1)CC3", "growth", 95.5),
    ("CCN(Cc1ccccc1)c1ccc(C=O)cc1", "growth", 90.3),
    ("C/C(=N\\NC(=O)CSc1nc2ccccc2c(=O)n1CCc1ccc(S(N)(=O)=O)cc1)c1ccccn1", "growth", 22.8),
    ("O=C(Cn1c[n+](CC(=O)c2ccc(-c3ccccc3)cc2)c2ccccc21)Nc1cccc2cccnc12", "growth", -17.1),
    ("C=C(C)[C@@H]1CC[C@]2(C(=O)N3CCN(C)CC3)CC[C@]3(C)[C@H](CC[C@@H]4[C@@]5(C)CC[C@H](OCCC#N)C(C)(C)[C@@H]5CC[C@]43C)[C@@H]12", "growth", 3.86),
    ("NC(=O)CSSCC(N)=O", "growth", 85.2),
    ("CN1C(=O)NC(c2ccc3c(c2)OCO3)C=C1c1ccccc1 (stereo not given)", "growth", 23.3),
    ("COc1cc(CC(=O)c2ccc(O)c(OC)c2)ccc1O", "growth", 90.1),
    ("Cn1ccc2c1CC1CN(Cc3ccco3)C(=O)C1C2C(=O)O (stereo not given)", "growth", 107),
    ("Cc1cc(C)c(S(=O)(=O)Oc2ccccc2[N+](=O)[O-])c(C)c1", "growth", 15.7),
    ("O=C(/C=C/c1ccc(Cl)cc1)c1ccc(NC(=O)N2CCN(c3cc4c(cc3F)c(=O)c(C(=O)O)cn4C3CC3)CC2)cc1", "growth", 22),
    ("COc1ccc(-c2nc3sccn3c2/C=C/C(=O)c2ccc3c(c2)OCO3)cc1", "growth", 41.4),
    ("CC(=O)O[C@@H]1C2CCC3C(CC[C@@]4(C)C3CC[C@@H]4C(C)N(C)C)[C@@]2(C)CC[C@@H]1NC(=O)C=C(C)C (stereo not given in full)", "growth", -34.5),
]
